molecular target: UniProt P41143; assay: cAMP inhibition assay, hDOR; format: cell-based; set-up: expressed in transfected cells; conditions: hDOR
Sequence (P41143 whole entry): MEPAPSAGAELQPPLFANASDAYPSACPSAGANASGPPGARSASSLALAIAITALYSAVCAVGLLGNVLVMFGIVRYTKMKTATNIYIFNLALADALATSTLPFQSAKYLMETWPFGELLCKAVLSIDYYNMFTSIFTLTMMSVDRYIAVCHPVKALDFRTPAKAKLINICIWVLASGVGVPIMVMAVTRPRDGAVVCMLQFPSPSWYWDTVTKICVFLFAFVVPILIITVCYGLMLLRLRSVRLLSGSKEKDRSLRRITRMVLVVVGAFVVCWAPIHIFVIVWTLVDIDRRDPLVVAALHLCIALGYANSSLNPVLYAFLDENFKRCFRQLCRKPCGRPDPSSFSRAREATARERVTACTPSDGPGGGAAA
# Lookup of reported cAMP inhibition pEC50 ± SEM keyed by entry

O=C(N[C@@H]1CC[C@@]2(O)C3Cc4ccc(O)cc4[C@@]2(CCN3CC2CC2)C1)c1cccc(I)c1    8.6 ± 0.06
CO[C@@]12CC[C@@H](NC(=O)c3cccc(I)c3)C3Oc4c(O)ccc5c4[C@@]31CCN(CC1CC1)C2C5 (some centres unmarked)    7.1 ± 0.08
O=C(N[C@@H]1CC[C@@]2(O)[C@H]3Cc4ccc(O)c5c4[C@@]2(CCN3CC2CC2)[C@H]1O5)c1cccc(I)c1 [IBNtxA, reference compound]    9.3 ± 0.03
O=C(N[C@@H]1C=CC2[C@H]3Cc4ccc(O)c5c4[C@@]2(CCN3CC2CC2)[C@H]1O5)c1cccc(I)c1 (some centres unmarked) [MP1104, reference compound]    9.4 ± 0.04

Dear colleague, I am looking for the recorded cAMP inhibition pEC50 ± SEM of the following compound: N=C(N)NCc1cccc(C(=O)N[C@@H]2CCC3C4Cc5ccc(O)c6c5[C@@]3(CCN4CC3CC3)C2O6)c1 (some centres unmarked)
8.6 ± 0.13
